Test: Pharmacokinetic evaluation in male CD1 mice
Details: mouse, in vivo, po, 10 mg/kg (p.o.)
test_readout: AUC(0-t) (ng·h/mL)
One number for each entry, in ng·h/mL.

Incoming: Supply measured AUC(0-t) of `FC(F)c1nnc(-c2cnc(Nc3cc(-c4ccccc4)c4nc[nH]c4c3)nc2)o1` in your reply.
Outgoing: 5820
